Source of measurements: ChEMBL document CHEMBL1156948

# System: Yersinia pseudotuberculosis YPIII
# method_description: Inhibition of T3S in Yersinia pseudotuberculosis YPIII expressing yopE-luxAB at 50 uM after 3 hrs by luciferase reporter gene assay
value_type: inhibition (%)
Numbers only, in %.

Look over these answered cases.
>  <smiles_code>
COc1cccc(/C=N/NC(=O)c2cc(OC)c(OC)c(OC)c2)c1O

>  <system>
Yersinia pseudotuberculosis YPIII

>  <inhibition [%]>
43

$$$$
>  <smiles_code>
O=C(COc1ccc(F)cc1)N/N=C/c1cc(I)cc(I)c1O

>  <system>
Yersinia pseudotuberculosis YPIII

>  <inhibition [%]>
30

$$$$
>  <smiles_code>
CC(C)(C)c1cc(/C=N/NC(=O)COc2ccc([N+](=O)[O-])cc2)c(O)c(C(C)(C)C)c1

>  <system>
Yersinia pseudotuberculosis YPIII

>  <inhibition [%]>
18

$$$$
>  <smiles_code>
COc1cc([N+](=O)[O-])cc(/C=N/NC(=O)CC#N)c1O

>  <system>
Yersinia pseudotuberculosis YPIII

>  <inhibition [%]>
39

$$$$
>  <smiles_code>
O=C(CCc1ccc(O)cc1)N/N=C/c1c(O)cc(O)cc1O

>  <system>
Yersinia pseudotuberculosis YPIII

>  <inhibition [%]>
29

$$$$

Record inhibition per entry; entries follow.
1. O=C(N/N=C/c1cc(I)cc(I)c1O)c1cc(Cl)cc(Cl)c1
2. O=C(N/N=C/c1cc([N+](=O)[O-])cc([N+](=O)[O-])c1O)c1ccc(Br)cc1
3. O=C(CCc1ccc(F)cc1)N/N=C/c1cc(F)cc(Cl)c1O

**A:**
26
22
63

For each of the items listed, what is its inhibition?
1. O=C(CC12CC3CC(CC(C3)C1)C2)N/N=C/c1ccc(Cl)cc1O
2. COc1cccc(C(=O)N/N=C/c2cc(C(C)(C)C)cc(C(C)(C)C)c2O)c1

**A:**
[32, 23]

---

# Tested on: Yersinia pseudotuberculosis YPIII
# method_description: Inhibition of T3S in Yersinia pseudotuberculosis YPIII expressing yopE-luxAB at 1.56 uM after 3 hrs by luciferase reporter gene assay
Would you mind telling me the reported inhibition of each entry?
A complete answer gives the number followed by the unit.

>  <smiles_code>
O=C(N/N=C/c1cc(Br)ccc1O)c1ccccc1Cl

>  <inhibition>
10%

$$$$
>  <smiles_code>
O=C(N/N=C/c1cc(F)cc(Cl)c1O)c1cc(Cl)cc(Cl)c1

>  <inhibition>
-10%

$$$$
>  <smiles_code>
COc1cc(C(=O)N/N=C/c2cc(Cl)cc(Cl)c2O)cc(OC)c1OC

>  <inhibition>
-10%

$$$$
>  <smiles_code>
N#CCC(=O)N/N=C/c1cc(Br)ccc1O

>  <inhibition>
0%

$$$$
>  <smiles_code>
O=C(N/N=C/c1ccc(O)c(O)c1O)c1ccccc1[N+](=O)[O-]

>  <inhibition>
-8%

$$$$

Give inhibition for all molecules that follow.
1. COc1cc(Br)cc(/C=N/NC(=O)CCc2ccc(O)cc2)c1O
2. COc1cccc(C(=O)N/N=C/c2cccc(F)c2O)c1
3. COc1ccc(/C=N/NC(=O)CCc2ccc(O)cc2)c(O)c1
4. CCN(CC)c1ccc(/C=N/NC(=O)c2cc(Cl)cc(Cl)c2)c(O)c1
5. COc1cc(C(=O)N/N=C/c2ccc(O)c(O)c2O)cc(OC)c1OC
6. O=C(CCc1ccc(F)cc1)N/N=C/c1cc(F)cc(Cl)c1O

**A:**
["-10%", "-2%", "-2%", "-6%", "-10%", "-6%"]

---

For each of the molecules below, state its inhibition.
# Tested on: Yersinia pseudotuberculosis YPIII
# method_description: Inhibition of T3S in Yersinia pseudotuberculosis YPIII expressing yopE-luxAB at 12.5 uM after 3 hrs by luciferase reporter gene assay
Write your answer as a measured quantity: the number, then the unit.

>  <smiles_code>
O=C(COc1ccc([N+](=O)[O-])cc1)N/N=C/c1cccc(F)c1O

>  <inhibition>
4%

$$$$
>  <smiles_code>
CC(C)(C)c1ccc(O)c(/C=N/NC(=O)CC23CC4CC(CC(C4)C2)C3)c1

>  <inhibition>
13%

$$$$
>  <smiles_code>
CCN(CC)c1ccc(/C=N/NC(=O)c2ccc(OC)c(OC)c2)c(O)c1

>  <inhibition>
29%

$$$$
>  <smiles_code>
COc1ccc(/C=N/NC(=O)CCc2ccc(O)cc2)c(O)c1

>  <inhibition>
16%

$$$$
>  <smiles_code>
O=C(N/N=C/c1cc(Br)ccc1O)c1ccccc1Cl

>  <inhibition>
13%

$$$$

Please look at the items below and tell me inhibition for each one, in order.
1. O=C(CC12CC3CC(CC(C3)C1)C2)N/N=C/c1cc([N+](=O)[O-])cc([N+](=O)[O-])c1O
2. COc1ccc(C(=O)N/N=C/c2cc(I)cc(I)c2O)cc1OC
3. COc1cccc(/C=N/NC(=O)c2ccccc2[N+](=O)[O-])c1O
4. COc1cc(Br)cc(/C=N/NC(=O)C(N)=O)c1O
5. CCN(CC)c1ccc(/C=N/NC(=O)c2cc(Cl)cc(Cl)c2)c(O)c1
6. COc1cccc(/C=N/NC(=O)c2cc(OC)c(OC)c(OC)c2)c1O
7. O=C(N/N=C/c1cccc(F)c1O)c1cccc(C(F)(F)F)c1

**A:**
1. 10%
2. 23%
3. 12%
4. 8%
5. 29%
6. 15%
7. 14%

---

# System: Yersinia pseudotuberculosis YPIII
# method_description: Inhibition of T3S in Yersinia pseudotuberculosis YPIII expressing yopE-luxAB at 25 uM after 3 hrs by luciferase reporter gene assay
value_type: inhibition (%)
One number for each entry, in %.

Known inhibition results, listed for orientation:
>  <smiles_code>
NC(=O)C(=O)N/N=C/c1c(O)cc(O)cc1O

>  <system>
Yersinia pseudotuberculosis YPIII

>  <inhibition, %>
26

$$$$
>  <smiles_code>
O=C(N/N=C/c1cccc(F)c1O)c1ccc([N+](=O)[O-])cc1

>  <system>
Yersinia pseudotuberculosis YPIII

>  <inhibition, %>
19

$$$$
>  <smiles_code>
O=C(N/N=C/c1ccc(Cl)cc1O)c1ccncc1

>  <system>
Yersinia pseudotuberculosis YPIII

>  <inhibition, %>
27

$$$$
>  <smiles_code>
COc1cc(C(=O)N/N=C/c2ccc(O)c(O)c2O)cc(OC)c1OC

>  <system>
Yersinia pseudotuberculosis YPIII

>  <inhibition, %>
31

$$$$
>  <smiles_code>
COc1cc(Br)cc(/C=N/NC(=O)c2sc3ccccc3c2Cl)c1O

>  <system>
Yersinia pseudotuberculosis YPIII

>  <inhibition, %>
23

$$$$

Okay, next one:
**Q:** Please report the recorded inhibition for O=C(CCc1ccc(F)cc1)N/N=C/c1cc(F)cc(Cl)c1O .
**A:** 15

---

# System: Yersinia pseudotuberculosis YPIII
# method_description: Inhibition of T3S in Yersinia pseudotuberculosis YPIII expressing yopE-luxAB at 6.25 uM after 3 hrs by luciferase reporter gene assay
Label true (1) for high-side inhibition (at or above 10%) and false (0) for low-side inhibition (below it).

These recorded examples may help you get a feel for the data.
>  <smiles_code>
COc1ccc(Br)c(C(=O)N/N=C/c2cc([N+](=O)[O-])cc([N+](=O)[O-])c2O)c1

>  <category>
true (1)

$$$$
>  <smiles_code>
CCN(CC)c1ccc(/C=N/NC(=O)c2cc(Cl)cc(Cl)c2)c(O)c1

>  <category>
true (1)

$$$$
>  <smiles_code>
COc1cc(C(=O)N/N=C/c2ccc(O)c(O)c2O)cc(OC)c1OC

>  <category>
true (1)

$$$$
>  <smiles_code>
COc1cc(Br)cc(/C=N/NC(=O)CCc2ccc(O)cc2)c1O

>  <category>
false (0)

$$$$
>  <smiles_code>
CC(C)(C)c1ccc(O)c(/C=N/NC(=O)c2ccc(Br)cc2)c1

>  <category>
true (1)

$$$$

**Q:** Hi, just wondering whether CCN(CC)c1ccc(/C=N/NC(=O)c2ccc(OC)c(OC)c2)c(O)c1 shows inhibition of 10% or higher.
**A:** true (1)

**Q:** Also check O=C(N/N=C/c1ccc(Cl)cc1O)c1ccc(Br)cc1
**A:** true (1)

**Q:** What about COc1cc(/C=N/NC(=O)c2cccc(C(F)(F)F)c2)c(O)c(OC)c1 ?
**A:** true (1)

**Q:** Next entry: O=C(CC12CC3CC(CC(C3)C1)C2)N/N=C/c1cc([N+](=O)[O-])cc([N+](=O)[O-])c1O
**A:** false (0)

**Q:** Also, COc1cc(/C=N/NC(=O)COc2ccc([N+](=O)[O-])cc2)c(O)c(OC)c1 please.
**A:** true (1)

**Q:** Entry O=C(N/N=C/c1cccc(F)c1O)c1cccc(C(F)(F)F)c1 please
**A:** false (0)

---

# System: Yersinia pseudotuberculosis YPIII
# method_description: Inhibition of T3S in Yersinia pseudotuberculosis YPIII expressing yopE-luxAB at 3.13 uM after 3 hrs by luciferase reporter gene assay
Task for the reader: assign each of the following molecules its reported inhibition.
Answers are plain numbers, in %.

Completed entries (count: 4):
>  <smiles_code>
O=C(N/N=C/c1cc(Br)ccc1O)c1ccncc1

>  <units_text>
%

>  <inhibition>
14

$$$$
>  <smiles_code>
COc1cc([N+](=O)[O-])cc(/C=N/NC(=O)c2ccncc2)c1O

>  <units_text>
%

>  <inhibition>
8

$$$$
>  <smiles_code>
O=C(COc1ccc(F)cc1)N/N=C/c1cc(I)cc(I)c1O

>  <units_text>
%

>  <inhibition>
0

$$$$
>  <smiles_code>
COc1cc(/C=N/NC(=O)c2cccc(C(F)(F)F)c2)c(O)c(OC)c1

>  <units_text>
%

>  <inhibition>
10

$$$$

**Q:** Looking for the measured inhibition of COc1cc(Br)cc(/C=N/NC(=O)c2sc3ccccc3c2Cl)c1O , can you help?
**A:** 10
